B1: glmS ribozyme (parent)
chain: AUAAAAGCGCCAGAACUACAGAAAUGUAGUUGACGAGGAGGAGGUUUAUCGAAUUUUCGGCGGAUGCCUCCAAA

# Variants of: B1
# Experiment Notes: self-cleavage kobs at 40 uM GlcN6P; higher = faster cleavage; RNA array
# Condition Details: with glucosamine-6-phosphate
Variants at the floor of the assay were thinned out.
Listing of recorded self-cleavage kobs at 40 uM GlcN6P by entry.

Variant String	self-cleavage kobs at 40 uM GlcN6P
G51C A64U	< 1e-05 s⁻¹
G13U G41U U46G	< 1e-05 s⁻¹
G7U C8G U47G C58U C61G U69G	0.000436 s⁻¹
G32A C50A U55G C71G	< 1e-05 s⁻¹
G66U C71U	3.7e-05 s⁻¹
G37C G62C	< 1e-05 s⁻¹
C8A A12U A33C A39G A53C C68A	< 1e-05 s⁻¹
C16G C71U	0.000132 s⁻¹
G9A C10G C68U	< 1e-05 s⁻¹
G7C	< 1e-05 s⁻¹

Challenge: Field request: self-cleavage kobs at 40 uM GlcN6P | item: G51C A53C
Response given: < 1e-05 s⁻¹

Challenge: Field request: self-cleavage kobs at 40 uM GlcN6P | item: U2A G29U
Response given: 0.000181 s⁻¹

Challenge: Field request: self-cleavage kobs at 40 uM GlcN6P | item: A33C G40C G44U C50U
Response given: < 1e-05 s⁻¹

Challenge: Field request: self-cleavage kobs at 40 uM GlcN6P | item: C11U A53G
Response given: 5.07e-05 s⁻¹

Challenge: Field request: self-cleavage kobs at 40 uM GlcN6P | item: U49C A52C
Response given: < 1e-05 s⁻¹

Challenge: Field request: self-cleavage kobs at 40 uM GlcN6P | item: C10U C11A
Response given: < 1e-05 s⁻¹

Challenge: Field request: self-cleavage kobs at 40 uM GlcN6P | item: G38C U65C
Response given: < 1e-05 s⁻¹

Challenge: Field request: self-cleavage kobs at 40 uM GlcN6P | item: C8U G44A
Response given: < 1e-05 s⁻¹

Challenge: Field request: self-cleavage kobs at 40 uM GlcN6P | item: G32C U47C
Response given: < 1e-05 s⁻¹

Challenge: Field request: self-cleavage kobs at 40 uM GlcN6P | item: G32U A52C U55G C61U
Response given: < 1e-05 s⁻¹

Challenge: Field request: self-cleavage kobs at 40 uM GlcN6P | item: U47C A53U
Response given: 4.38e-05 s⁻¹

Challenge: Field request: self-cleavage kobs at 40 uM GlcN6P | item: G13A G63A
Response given: < 1e-05 s⁻¹
